// provenance: the supplement of paper PMC10567573

B1: ZNF8 (parent)
chain: VHVIGVEEPSVGASMLFDIREST

Variants of: B1
Test: protein stability index of a GFP-peptide fusion (GPS, HEK-293T) (PSI 1-6); higher = more stable;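 further: lentivirally expressed fusions sorted by FACS into six bins by GFP to DsRed ratio, PSI derived from sequencing read proportions per bin multiplied by bin number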
Measurement Setup: c terminus: native

Sequence Record: VHVIGVEEPSVGASMLFYIREST [D18Y]
protein stability index: 2.55

Sequence Record: VHVIGVEEPFVGASMLFDIREST [S10F]
protein stability index: 1.26

Sequence Record: VHVIGVEEPSVGASMLFTIREST [D18T]
protein stability index: 1.69

Sequence Record: VHVIGVEEPSVGASMLFDIMEST [R20M]
protein stability index: 1.79

Sequence Record: VHVIGVEEPWVGASMLFDIREST [S10W]
protein stability index: 1.68

Sequence Record: VHVIGVEEPSVGASWLFDIREST [M15W]
protein stability index: 2.34

Sequence Record: VHVIGVEEPSVSASMLFDIREST [G12S]
protein stability index: 2.19

Sequence Record: VRVIGVEEPSVGASMLFDIREST [H2R]
protein stability index: 2.09

Sequence Record: VHVIGVEVPSVGASMLFDIREST [E8V]
protein stability index: 2.45

Sequence Record: VHVIGVEEPSVGASMLFDMREST [I19M]
protein stability index: 2.33

Sequence Record: VHVIGVEEPSVGASMLHDIREST [F17H]
protein stability index: 3.17
